All values here come from PubChem BioAssay (NCI).

Tested on: HL-60(TB) leukemia
Test: NCI tumour cell line growth inhibition, 48 h

{"columns": ["MOLECULE", "TGI"],
 "data": [
  ["CC1CN=C(c2cccc(OCc3ccc(COc4cccc(C5=NCC(C)N5)c4)cc3)c2)N1 (stereo not given)", "> 100 µM"],
  ["Cc1ccc(S(=O)(=O)C(C#N)c2nc3ccccc3nc2-n2cccn2)cc1 (stereo not given)", "> 100 µM"],
  ["O=C1c2cc3c(cc2CC12Cc1cc4c(cc1C2)CCC4)CCC3", "> 100 µM"],
  ["COC(=O)[C@H](Cc1ccccc1)NC(=O)c1csc([C@@H](C[C@H](C(C)C)N(C)C(=O)[C@@H](NC(=O)[C@H]2CCCCN2C)C2CC2)OC(C)=O)n1", "0.193 µM"],
  ["CCOC(=O)c1c2c(n(C)c1-c1ccccc1)C(=O)C(C)=CC2=O", "9.79 µM"]
]}
